- TARGET_OF_ASSAY: SUMO (Homo sapiens)
- Sequence (Q9UBT2 1-640): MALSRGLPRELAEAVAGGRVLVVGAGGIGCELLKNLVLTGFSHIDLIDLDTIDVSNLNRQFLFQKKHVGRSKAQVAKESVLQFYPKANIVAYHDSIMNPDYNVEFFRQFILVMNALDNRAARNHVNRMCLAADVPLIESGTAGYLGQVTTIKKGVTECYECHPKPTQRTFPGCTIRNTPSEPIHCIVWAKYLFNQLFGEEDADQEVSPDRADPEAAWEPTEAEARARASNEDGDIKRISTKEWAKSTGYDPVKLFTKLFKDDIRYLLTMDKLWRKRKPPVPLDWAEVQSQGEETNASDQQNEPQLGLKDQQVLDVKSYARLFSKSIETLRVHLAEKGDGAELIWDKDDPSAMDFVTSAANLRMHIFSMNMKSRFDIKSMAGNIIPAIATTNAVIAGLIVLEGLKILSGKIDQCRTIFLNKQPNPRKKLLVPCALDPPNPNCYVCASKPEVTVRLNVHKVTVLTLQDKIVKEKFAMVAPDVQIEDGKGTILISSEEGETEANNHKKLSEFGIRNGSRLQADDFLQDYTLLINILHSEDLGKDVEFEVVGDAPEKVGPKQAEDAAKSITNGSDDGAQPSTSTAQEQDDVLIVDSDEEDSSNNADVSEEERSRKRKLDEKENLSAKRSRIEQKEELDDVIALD
- Sequence (Q9UBE0 1-346 partner): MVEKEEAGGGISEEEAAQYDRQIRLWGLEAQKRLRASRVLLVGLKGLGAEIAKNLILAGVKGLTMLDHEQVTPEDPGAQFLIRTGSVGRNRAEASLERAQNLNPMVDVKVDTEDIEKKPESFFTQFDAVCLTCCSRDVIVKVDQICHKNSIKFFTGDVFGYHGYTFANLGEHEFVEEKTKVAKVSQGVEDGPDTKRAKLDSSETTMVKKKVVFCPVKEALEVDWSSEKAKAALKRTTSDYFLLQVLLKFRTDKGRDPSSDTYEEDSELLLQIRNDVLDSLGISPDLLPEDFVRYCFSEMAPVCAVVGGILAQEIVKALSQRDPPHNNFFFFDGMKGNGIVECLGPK
- TEST_DESCRIPTION: SUMO activity (Table I, biological activities)
- Type: biochemical
- Design: key: + (less active); ++ (active); +++ (most active)
QUANTITY_NAME: SUMO

COMPOUND	SUMO
COC(=O)C1=C(C(=O)Nc2ccc(OC)cc2)C2CCC1(C(Cc1ccccc1)Oc1ccccc1)O2 (stereo not drawn)	+
CCCCC(Nc1cc(F)cc(F)c1)C12C=CC(O1)C(C(=O)NC1CCN(C)CC1)=C2C(=O)OC (stereo not drawn)	+++
CCOc1cccc(NC(Cc2ccccc2)C23C=CC(O2)C(C(=O)NCc2ccncc2)=C3C(=O)OC)c1 (stereo not drawn)	++
COC(=O)C1=C(C(N)=O)C2C=CC1(C(Cc1ccccc1)Nc1cc(F)cc(Cl)c1)O2 (stereo not drawn)	+
C=CCC(Nc1ccccc1)C12C=CC(O1)C(C(=O)NCCN(CC)CC)=C2C(=O)OC (stereo not drawn)	++

Return SUMO measured with SUMO (Homo sapiens) given this compound: COC(=O)C1=C(CO)C2(C)C=CC1(C(Cc1ccccc1)Oc1ccccc1)O2 (stereo not drawn)
+

Please state recorded SUMO (tested on SUMO (Homo sapiens)) of COC(=O)C1=C(C(N)=O)C2C=CC1(C(Cc1ccccc1)Nc1cc(F)cc(F)c1)O2 (stereo not drawn)
+

Recall the recorded SUMO for COC(=O)C1=C(C(=O)NCCN(C)C)C2(C(Cc3ccccc3)Nc3cc(F)cc(F)c3)C=CC1O2 (stereo not drawn) with SUMO (Homo sapiens) and state it.
++

Short answer please: SUMO, SUMO (Homo sapiens), entry COC(=O)C1=C(C(=O)NCCCN(C)C)C2C=CC1(C(Cc1ccccc1)Nc1ccccc1)O2 (stereo not drawn)
++

# get_value(readout= SUMO, system= SUMO (Homo sapiens)) for CCN(CC)CCNC(=O)C1=C(C(=O)OC)C2(C(Cc3ccc(F)cc3)Nc3cc(F)cc(Cl)c3)C=CC1O2 (stereo not drawn)
++

API: value(readout= SUMO, system= SUMO (Homo sapiens), query= COC(=O)C1=C(C(=O)Nc2ccccc2OC)C2C=CC1(C(Cc1ccccc1)Nc1ccccc1)O2 (stereo not drawn) )
++

What measured SUMO is associated with COC(=O)C1=C(C(=O)NC2CCN(C)CC2)C2C=CC1(C(Cc1ccccc1)Nc1cc(F)cc(F)c1)O2 (stereo not drawn) on SUMO (Homo sapiens)?
++

Provide value of SUMO for this record tested with SUMO (Homo sapiens): COC(=O)C1=C(C(=O)NC2CCN(C(=O)OC(C)(C)C)CC2)C2C=CC1(C(Cc1ccccc1)Nc1cc(F)cc(F)c1)O2 (stereo not drawn) [Compound 255]
+

Item COC(=O)C1=C(C(=O)OC)C2(C(Cc3ccc(-c4cc[nH]n4)cc3)Nc3ccccc3)C=CC1O2 (stereo not drawn) with SUMO (Homo sapiens) - SUMO?
+++

Request - read-out SUMO | tested on SUMO (Homo sapiens) | compound COC(=O)C1=C(C(=O)OC)C2(C(Cc3ccc(NC(C)C)cc3)Nc3ccccc3)C=CC1O2 (stereo not drawn)
+
